target: UniProtKB P02766; experiment: Inhibition of transthyretin amyloidosis assessed as fibril formation pH 4.4 at 100 uM; format: functional
measurement.type: percent fibril formation relative to control (%)
Numeric answer only, unit % assumed.

For reference, reported percent fibril formation relative to control for CCCCC1NC(C(=O)O)CS1 (stereo not given) stands at 128

====

Quick reference for Activity among some compounds
molecular target: Transthyretin (Homo sapiens, UniProt P02766); test: Inhibition of transthyretin amyloidosis assessed as fibril formation at 7.2 uM at pH 4.4 relative to control; assay type: functional; design: scale not given: the % may be the effect or the level left
I only need the number, in %, no unit after it.

// below: answered compounds
1) Oc1ccccc1-c1nnc(S)o1	21
2) O=C(O)c1ccc(Oc2ccccc2)c(O)c1	32
3) COc1cc(CCl)ccc1Oc1ccccc1	25
4) COc1cc(CCl)ccc1Oc1ccc(Cl)cc1Cl	26
5) Oc1cc(CCl)ccc1Oc1ccc(Cl)cc1Cl	5
6) O=C(Nc1nnc[nH]1)c1c(Cl)ccc(Cl)c1Cl	11

For this compound ( COc1cc(C=O)ccc1Oc1ccccc1 ), measured Activity is 12

====

This listing pairs compounds with measured percent fibril formation relative to control.
target: Transthyretin (Homo sapiens); experiment: Inhibition of transthyretin amyloidosis assessed as fibril formation pH 4.4 at 100 uM; type: functional
Please provide the amount together with its unit, number first.

1. O=C(O)C1CSC(c2cccnc2)N1 (stereo not drawn)	144%
2. Cc1nnc2c(Oc3ccc(Cl)cc3)nc3cc(Cl)ccc3n12	114%
3. O=C(O)C1CSC(c2ccc(Cl)cc2)N1 (stereo not drawn)	142%
4. O=C(NC(c1cccc([N+](=O)[O-])c1)c1cc(Cl)c2cccnc2c1O)c1cccnc1 (stereo not drawn)	72.8%

The compound listed as Cc1ccccc1C1=N/C(=C\c2sccc2C)C(=O)O1 has a reported percent fibril formation relative to control of 115%

Field percent fibril formation relative to control (entry Cc1nc2ccc(Cl)cc2c(O)c1CN1CCCC1 ) reads 81.8%

For this compound ( O=C1OC(/C=C/c2ccc(Cl)cc2Cl)=NC/1=C\c1cccs1 ), measured percent fibril formation relative to control is 294%

Short answer for Cc1ccc2nc(-c3ccc(Cl)s3)c(Nc3ccc(Cl)cc3)n2c1 : percent fibril formation relative to control was 113%

Entry under test: O=C1OC(c2ccc(Cl)cc2Cl)=N/C1=C\c1cccs1 . Its percent fibril formation relative to control was 136%

So for Oc1ccc(-c2nc3ncccn3c2Nc2ccc(Cl)cc2)cc1 , the logged percent fibril formation relative to control turned out to be 135%

Consider COc1ccccc1NC(=S)N(CCCN1CCCCCC1)Cc1cccs1 . Its measured percent fibril formation relative to control is 104%

Sure, the documented percent fibril formation relative to control for CSC1=NSC2=NC(=O)/C(=C\c3ccc[nH]3)C(=N)N12 is 202%

# percent fibril formation relative to control (compound: O=C(O)c1ccc(Cl)c(N2C(=O)C3C4CCC(C4)C3C2=O)c1 (stereo in doubt; 34) ) is 104%

The value of percent fibril formation relative to control measured for the compound CCN1C(=O)/C(=C/c2ccc(N(CC)CC)cc2O)SC1=S turned out to be 177%

Lab book: percent fibril formation relative to control of CCC(=O)NC(c1ccc2c(c1)OCO2)c1cc(Cl)c2cccnc2c1O (stereo not drawn) noted as 41.9%

// field: percent fibril formation relative to control; key: O=C1/C(=C/c2ccc(Cl)cc2Cl)SC(=S)N1c1ccc(O)cc1 ; value = 291%

The measured values listed here are drawn from ChEMBL document CHEMBL1138243.
